target: human αvβ5 expressed on BaF3 cells (stably transfected with human αv and β5 subunits) (human, UniProt P06756 31-1048; P18084 24-799); experiment: cell-based or functional assay
Sequence (P06756 31-1048 limits assumed, chain 1 of 2): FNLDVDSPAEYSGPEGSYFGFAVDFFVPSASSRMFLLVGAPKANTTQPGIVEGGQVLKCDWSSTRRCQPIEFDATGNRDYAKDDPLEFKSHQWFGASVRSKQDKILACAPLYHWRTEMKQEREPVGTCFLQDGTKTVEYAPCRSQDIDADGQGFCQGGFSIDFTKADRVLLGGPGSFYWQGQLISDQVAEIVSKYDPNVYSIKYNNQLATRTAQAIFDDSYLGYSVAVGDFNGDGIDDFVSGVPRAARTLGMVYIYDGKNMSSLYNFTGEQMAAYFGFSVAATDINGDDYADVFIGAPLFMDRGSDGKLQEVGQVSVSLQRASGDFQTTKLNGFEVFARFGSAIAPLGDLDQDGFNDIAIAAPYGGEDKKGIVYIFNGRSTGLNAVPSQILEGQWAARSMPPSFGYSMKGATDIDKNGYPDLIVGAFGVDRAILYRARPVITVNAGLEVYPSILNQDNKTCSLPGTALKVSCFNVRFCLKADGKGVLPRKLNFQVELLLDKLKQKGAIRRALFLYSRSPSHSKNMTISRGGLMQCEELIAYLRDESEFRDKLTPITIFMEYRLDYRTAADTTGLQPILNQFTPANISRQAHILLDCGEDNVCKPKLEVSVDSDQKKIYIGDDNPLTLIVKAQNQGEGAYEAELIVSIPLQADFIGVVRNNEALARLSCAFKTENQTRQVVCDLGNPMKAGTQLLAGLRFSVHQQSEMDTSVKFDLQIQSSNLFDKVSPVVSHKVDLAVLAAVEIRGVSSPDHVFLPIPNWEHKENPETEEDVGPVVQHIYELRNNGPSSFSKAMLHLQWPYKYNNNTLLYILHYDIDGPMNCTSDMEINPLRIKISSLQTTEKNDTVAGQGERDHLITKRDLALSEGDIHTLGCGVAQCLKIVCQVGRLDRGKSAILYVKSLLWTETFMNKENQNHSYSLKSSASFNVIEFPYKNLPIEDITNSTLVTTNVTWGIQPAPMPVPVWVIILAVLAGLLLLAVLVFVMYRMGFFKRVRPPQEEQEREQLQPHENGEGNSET
Sequence (P18084 24-799 limits assumed, chain 2 of 2): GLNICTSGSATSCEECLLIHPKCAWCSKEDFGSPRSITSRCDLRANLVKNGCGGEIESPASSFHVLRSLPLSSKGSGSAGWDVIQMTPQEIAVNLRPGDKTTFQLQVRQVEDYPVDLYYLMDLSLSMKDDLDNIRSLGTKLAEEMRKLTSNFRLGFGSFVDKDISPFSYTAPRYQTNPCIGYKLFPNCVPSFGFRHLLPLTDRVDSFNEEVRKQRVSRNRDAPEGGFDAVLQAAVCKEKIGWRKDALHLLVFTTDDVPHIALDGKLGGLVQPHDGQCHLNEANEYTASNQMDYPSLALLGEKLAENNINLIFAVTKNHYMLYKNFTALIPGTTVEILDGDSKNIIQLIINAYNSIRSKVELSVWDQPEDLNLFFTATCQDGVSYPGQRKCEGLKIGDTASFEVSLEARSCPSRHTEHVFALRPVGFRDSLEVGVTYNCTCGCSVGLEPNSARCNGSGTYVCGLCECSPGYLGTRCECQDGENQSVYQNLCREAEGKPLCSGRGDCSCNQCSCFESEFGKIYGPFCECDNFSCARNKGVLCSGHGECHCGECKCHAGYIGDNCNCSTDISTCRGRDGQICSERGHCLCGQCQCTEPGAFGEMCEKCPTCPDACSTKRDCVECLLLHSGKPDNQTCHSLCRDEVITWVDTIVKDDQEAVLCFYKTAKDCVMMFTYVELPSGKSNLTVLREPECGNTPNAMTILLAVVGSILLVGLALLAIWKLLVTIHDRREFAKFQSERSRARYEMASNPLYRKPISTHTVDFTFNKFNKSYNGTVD
BaF3-hu αvβ5 Cell adhesion to vitronectin, Fold chg. (against mouse chimeric ALULA): recorded values
API: value field is a number in fold; no unit string.

INSERT INTO measurements (binder, result_unit, readout_number) VALUES
  ('VH2/VL2 Agly-IgG4.P (S228P)/IgG1 (N297Q) (antibody, V domains shown, also called VH2/VL2 (Agly-IgG4P/G1); H2/L2) VH: EVQVVQSGGGLVKPGESLRLSCAASGYTFTSYWMHWVKQAPGKGLEWVGAIYPGNSDTSYNQKFKGKFTISADTSSNTAYLQMNSLKTEDTAVYYCTTTTYGYDWFAYWGQGTLVTVSS VL: NIQMTQSPSSLSASVGDRVTMSCKSSQSVLYSSNQKNYLAWYQQKPGKSPKLLIYWASTRESGVPDRFTGSGSGTDFTLTISSLQPEDFATYYCHQYLSSLTFGQGTKLEIKR', 'fold', 1.8),
  ('ALULA-H4/L2-IgG4.P(S228P)/IgG1(N297Q) (antibody, V domains shown, Hybrid aglycosylated IgG4.P (S228P)/IgG1 (N297Q) heavy chain, human kappa light chain; also called VH4/VL2 (Agly-IgG4P/G1); H4/L2 antibody) VH: EVQVVQSGGGLVKPGESLRLSCKASGYTFTSYWMHWVKQAPGKGLEWVGAIYPGNSDTSYNQKFKGKFTISADTSPNTAYLQMNSLKTEDTAVYYCTTTTYGYDWFAYWGQGTLVTVSS VL: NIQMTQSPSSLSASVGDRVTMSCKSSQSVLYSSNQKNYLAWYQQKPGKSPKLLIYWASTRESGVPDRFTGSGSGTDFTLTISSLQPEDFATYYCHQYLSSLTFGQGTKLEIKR', 'fold', 0.6),
  ('VH5/VL2 Agly-IgG4.P (S228P)/IgG1 (N297Q) (antibody, V domains shown, also called VH5/VL2 (Agly-IgG4P/G1); H5/L2) VH: EVQVQQSGGGLVKPGGSLRLSCKASGYTFTSYWMHWVKQAPGKGLEWVGAIYPGNSDTSYNQKFKGKATLSAVTSPNTAYLQMNSLKTEDTAVYYCTTTTYGYDWFAYWGQGTLVTVSS VL: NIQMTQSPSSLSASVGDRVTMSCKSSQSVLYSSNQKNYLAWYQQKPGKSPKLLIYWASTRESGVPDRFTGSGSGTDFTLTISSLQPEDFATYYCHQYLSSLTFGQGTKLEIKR', 'fold', 1.7);

Please look at the following binder next.
Problem: Consider the binder VH4/VL0 Agly-IgG4.P (S228P)/IgG1 (N297Q) (antibody, V domains shown, also called VH4/VL0 (Agly-IgG4P/G1); H4/L0) VH: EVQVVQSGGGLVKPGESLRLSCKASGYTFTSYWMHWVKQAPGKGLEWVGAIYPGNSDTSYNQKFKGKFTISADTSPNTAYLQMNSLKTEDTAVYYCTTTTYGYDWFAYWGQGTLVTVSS VL: DIQMTQSPSSVSASVGDRVTITCKSSQSVLYSSNQKNYLAWYQQKPGKAPKLLIYWASTRESGVPSRFSGSGSGTDFTLTISSLQPEDFATYYCHQYLSSLTFGQGTKVEIKR . State its measured BaF3-hu αvβ5 Cell adhesion to vitronectin, Fold chg. (against mouse chimeric ALULA).
Result: 0.5
